conditions: in isobutanol, 298.15 K

{"compound": "CC(C(=O)O)c1ccc2c(c1)[nH]c1ccc(Cl)cc12 (stereo unspecified)", "solubility (mole fraction)": 0.0137}

* * *

details: in n-propanol, 313.15 K
readout.kind: solubility (mole fraction)

{"compound": "CC(C(=O)O)c1ccc2c(c1)[nH]c1ccc(Cl)cc12 (stereo unspecified)", "measured": 0.0507}

* * *

conditions: in acetic acid, 298.15 K

{"compound": "CC(C(=O)O)c1ccc2c(c1)[nH]c1ccc(Cl)cc12 (stereo unspecified)", "solubility (mole fraction)": 0.00863}

* * *

conditions: in n-butanol, 313.15 K

{"molecule": "CC(C(=O)O)c1ccc2c(c1)[nH]c1ccc(Cl)cc12 (stereo unspecified)", "solubility (mole fraction)": 0.0389}

* * *

details: in propylene glycol, 288.15 K

{"molecule": "CC(C(=O)O)c1ccc2c(c1)[nH]c1ccc(Cl)cc12 (stereo unspecified)", "solubility (mole fraction)": 0.0055}

* * *

conditions: in acetic acid, 288.15 K
readout.kind: solubility (mole fraction)

{"compound": "CC(C(=O)O)c1ccc2c(c1)[nH]c1ccc(Cl)cc12 (stereo unspecified)", "measured": 0.00687}

* * *

settings: in formic acid, 308.15 K

{"compound": "CC(C(=O)O)c1ccc2c(c1)[nH]c1ccc(Cl)cc12 (stereo unspecified)", "solubility (mole fraction)": 0.00146}

* * *

conditions: in propylene glycol, 303.15 K

{"compound": "CC(C(=O)O)c1ccc2c(c1)[nH]c1ccc(Cl)cc12 (stereo unspecified)", "solubility (mole fraction)": 0.00936}

Numbers sourced from BigSolDB 2.1.
